# Tested on: HEK-293T
# measurement_description: Multiplex assay against HEK293T
# Type: toxicity, cell-based
# condition_notes: human, 12 h, 10 µM, compound concentration 10 uM, replicate 2
measured_metric: Population Tubulin-Different-Phenotype (%)
One number for each entry, in %.

These recorded examples may help you get a feel for the data.
Cc1cc(=O)n(C)c2cc(N3C(=O)CC[C@H](NS(=O)(=O)CC(C)C)[C@H]3c3ccc(Cl)cc3)ccc12 = 66
Cc1sc2c(c1C)C(c1ccc(Cl)cc1)=N[C@H](CC(=O)OC(C)(C)C)c1nnc(C)n1-2 = 70

Please supply Population Tubulin-Different-Phenotype (%) for each of the following items, keeping them in order.
1. COc1cc2nc(N3CCN(C(=O)c4ccco4)CC3)nc(N)c2cc1OC.Cl [PRAZOSIN HYDROCHLORIDE]
2. O=c1nc2[nH]c3ccccc3nc-2c(=O)[nH]1
3. COc1cc(C(=O)N2CC[C@@H](O)[C@@H](N)C2)cc2nc(-c3cc4ccccc4n3CC3CC3)n(C)c12.Cl
4. Cc1nn(C)c2nc(NNC(=O)Nc3cc(Cl)nc(Cl)c3)cc(C(C)C)c12

Data returned:
[25, 20, 72, 75]

Data request: Report Population Tubulin-Different-Phenotype (%) for CN1CCN2c3ccccc3Cc3ccccc3C2C1.Cl (configuration not stated) [MIANSERIN HYDROCHLORIDE]
Data returned: 28
